Cited source for all entries: ChEMBL document CHEMBL2385047

As shown below, each of these compounds has a reported MIC80 value.
Tested on: Pichia kudriavzevii
Test: Antifungal activity against wild type Candida krusei CLY549 assessed as growth inhibition after 24 hrs by NCCLS broth microdilution method
Format: functional
Conditions: CLY549, 24 h
Numbered stars: 1 amine (or outer) side, 2 acyl side, 3 side chain; on linkers, the order of the positions; unused ones are H or OH. Bridge positions count the residues as written; N and C are the ends. Square brackets hold non-standard residues; d marks the D form. Peptide text beside a SMILES is read from it. * marks the point of attachment. Orn(4R-OH,5R-OH) = O=C([C@H](C[C@@H](O)[C@@H](O)N[*:3])N[*:1])[*:2]; Tetradecanoyl(10R,12S-Me2) = CC[C@H](C)C[C@H](C)CCCCCCCCC(=O)*; hTyr(3S-OH,4S-OH) = N[C@H](C(=O)O)[C@H](O)[C@@H](O)c1ccc(O)cc1; Pro(3S-OH,4S-Me) = C[C@H]1CN[C@H](C(=O)O)[C@H]1O; X1 = CCCCCOc1ccc(-c2cc(-c3ccc(C(=O)*)cc3)no2)cc1; Gln(3R-OH) = NC(=O)C[C@@H](O)[C@H](N)C(=O)O; Pro(3S-OH) = O=C(O)[C@H]1NCC[C@@H]1O; Hyp = O=C(O)[C@@H]1C[C@@H](O)CN1
Please respond with the number in µg/mL and leave the unit unwritten.

[[record]]
compound = "CC[C@H](C)C[C@H](C)CCCCCCCCC(=O)N[C@H]1C[C@@H](O)[C@@H](O)NC(=O)[C@@H]2[C@@H](O)[C@@H](C)CN2C(=O)[C@H]([C@H](O)CC(N)=O)NC(=O)[C@H]([C@H](O)[C@@H](O)c2ccc(O)cc2)NC(=O)[C@@H]2C[C@@H](O)CN2C(=O)[C@H]([C@@H](C)O)NC1=O ({Tetradecanoyl(10R,12S-Me2)}-[Orn(4R-OH,5R-OH)]T[Hyp][hTyr(3S-OH,4S-OH)][Gln(3R-OH)][Pro(3S-OH,4S-Me)]; lactam 1-C)"
assay_readout = "MIC80"
units_symbol = "µg/mL"
readout_value = 4


Query string: What does the record list as MIC80 for CCCCCOc1ccc(-c2cc(-c3ccc(C(=O)N[C@H]4C[C@@H](O)[C@@H](O)NC(=O)[C@@H]5[C@@H](O)CCN5C(=O)[C@H]([C@H](O)CC(N)=O)NC(=O)[C@H]([C@H](O)[C@@H](O)c5ccc(O)cc5)NC(=O)[C@@H]5C[C@@H](O)CN5C(=O)[C@H]([C@@H](C)O)NC4=O)cc3)no2)cc1 (X1-[Orn(4R-OH,5R-OH)]T[Hyp][hTyr(3S-OH,4S-OH)][Gln(3R-OH)][Pro(3S-OH)]; lactam 1-C) ?
Result string: 0.25

* * *

System: Pichia kudriavzevii
Assay: Antifungal activity against wild type Candida krusei CLY549 assessed as growth inhibition after 24 hrs by NCCLS broth microdilution method
Type: functional
Settings: CLY549, 24 h
Numbered stars: 1 amine (or outer) side, 2 acyl side, 3 side chain; on linkers, the order of the positions; unused ones are H or OH. Bridge positions count the residues as written; N and C are the ends. Square brackets hold non-standard residues; d marks the D form. Peptide text beside a SMILES is read from it. * marks the point of attachment. Orn(4R-OH,5R-OH) = O=C([C@H](C[C@@H](O)[C@@H](O)N[*:3])N[*:1])[*:2]; Tetradecanoyl(10R,12S-Me2) = CC[C@H](C)C[C@H](C)CCCCCCCCC(=O)*; hTyr(3S-OH,4S-OH) = N[C@H](C(=O)O)[C@H](O)[C@@H](O)c1ccc(O)cc1; Pro(3S-OH,4S-Me) = C[C@H]1CN[C@H](C(=O)O)[C@H]1O; X1 = CCCCCOc1ccc(-c2cc(-c3ccc(C(=O)*)cc3)no2)cc1; Gln(3R-OH) = NC(=O)C[C@@H](O)[C@H](N)C(=O)O; Pro(3S-OH) = O=C(O)[C@H]1NCC[C@@H]1O; Hyp = O=C(O)[C@@H]1C[C@@H](O)CN1
assay readout: MIC80 (µg/mL)
Please respond with the number in µg/mL and leave the unit unwritten.

[[record]]
compound = "CC[C@H](C)C[C@H](C)CCCCCCCCC(=O)N[C@H]1C[C@@H](O)[C@@H](O)NC(=O)[C@@H]2[C@@H](O)CCN2C(=O)[C@H]([C@H](O)CC(N)=O)NC(=O)[C@H]([C@H](O)[C@@H](O)c2ccc(O)cc2)NC(=O)[C@@H]2C[C@@H](O)CN2C(=O)[C@H]([C@@H](C)O)NC1=O ({Tetradecanoyl(10R,12S-Me2)}-[Orn(4R-OH,5R-OH)]T[Hyp][hTyr(3S-OH,4S-OH)][Gln(3R-OH)][Pro(3S-OH)]; lactam 1-C)"
study_system = "Pichia kudriavzevii"
assay_readout = "MIC80"
units_symbol = "µg/mL"
readout_value = 8

[[record]]
compound = "CCCCCOc1ccc(-c2cc(-c3ccc(C(=O)N[C@H]4C[C@@H](O)[C@@H](O)NC(=O)[C@@H]5[C@@H](O)[C@@H](C)CN5C(=O)[C@H]([C@@H](C)O)NC(=O)[C@H]([C@H](O)[C@@H](O)c5ccc(O)cc5)NC(=O)[C@@H]5C[C@@H](O)CN5C(=O)[C@H]([C@@H](C)O)NC4=O)cc3)no2)cc1 (X1-[Orn(4R-OH,5R-OH)]T[Hyp][hTyr(3S-OH,4S-OH)]T[Pro(3S-OH,4S-Me)]; lactam 1-C)"
study_system = "Pichia kudriavzevii"
assay_readout = "MIC80"
units_symbol = "µg/mL"
readout_value = 0.5


Query string: What does the record list as MIC80 for CCCCCOc1ccc(-c2cc(-c3ccc(C(=O)N[C@H]4C[C@@H](O)[C@@H](O)NC(=O)[C@@H]5[C@@H](O)[C@@H](C)CN5C(=O)[C@H]([C@H](O)CC(N)=O)NC(=O)[C@H]([C@H](O)[C@@H](O)c5ccc(O)cc5)NC(=O)[C@@H]5C[C@@H](O)CN5C(=O)[C@H]([C@@H](C)O)NC4=O)cc3)no2)cc1 (X1-[Orn(4R-OH,5R-OH)]T[Hyp][hTyr(3S-OH,4S-OH)][Gln(3R-OH)][Pro(3S-OH,4S-Me)]; lactam 1-C) ?
Result string: 0.125

Query string: How about CC[C@H](C)C[C@H](C)CCCCCCCCC(=O)N[C@H]1C[C@@H](O)[C@@H](NCCN)NC(=O)[C@@H]2[C@@H](O)CCN2C(=O)[C@H]([C@H](O)CCN)NC(=O)[C@H]([C@H](O)[C@@H](O)c2ccc(O)cc2)NC(=O)[C@@H]2C[C@@H](O)CN2C(=O)[C@H]([C@@H](C)O)NC1=O ?
Result string: 0.25

* * *

As shown below, each of these molecules has a reported MIC value.
System: Candida albicans
Assay: Antifungal activity against wild type Candida albicans MY1055 assessed as growth inhibition after 24 hrs by NCCLS broth microdilution method in presence of human serum
Type: functional
Conditions: MY1055, 24 h, read-out: MIC100
Numbered stars: 1 amine (or outer) side, 2 acyl side, 3 side chain; on linkers, the order of the positions; unused ones are H or OH. Bridge positions count the residues as written; N and C are the ends. Square brackets hold non-standard residues; d marks the D form. Peptide text beside a SMILES is read from it. * marks the point of attachment. Orn(4R-OH,5R-OH) = O=C([C@H](C[C@@H](O)[C@@H](O)N[*:3])N[*:1])[*:2]; hTyr(3S-OH,4S-OH) = N[C@H](C(=O)O)[C@H](O)[C@@H](O)c1ccc(O)cc1; Pro(3S-OH,4S-Me) = C[C@H]1CN[C@H](C(=O)O)[C@H]1O; X1 = CCCCCOc1ccc(-c2cc(-c3ccc(C(=O)*)cc3)no2)cc1; Gln(3R-OH) = NC(=O)C[C@@H](O)[C@H](N)C(=O)O; Pro(3S-OH) = O=C(O)[C@H]1NCC[C@@H]1O; Hyp = O=C(O)[C@@H]1C[C@@H](O)CN1

[[record]]
molecule = "CCCCCOc1ccc(-c2cc(-c3ccc(C(=O)N[C@H]4C[C@@H](O)[C@@H](O)NC(=O)[C@@H]5[C@@H](O)CCN5C(=O)[C@H]([C@H](O)CC(N)=O)NC(=O)[C@H]([C@H](O)[C@@H](O)c5ccc(O)cc5)NC(=O)[C@@H]5C[C@@H](O)CN5C(=O)[C@H]([C@@H](C)O)NC4=O)cc3)no2)cc1 (X1-[Orn(4R-OH,5R-OH)]T[Hyp][hTyr(3S-OH,4S-OH)][Gln(3R-OH)][Pro(3S-OH)]; lactam 1-C)"
assay_readout = "MIC"
readout_value = "1 µg/mL"

[[record]]
molecule = "CCCCCOc1ccc(-c2cc(-c3ccc(C(=O)N[C@H]4C[C@@H](O)[C@@H](O)NC(=O)[C@@H]5[C@@H](O)[C@@H](C)CN5C(=O)[C@H]([C@H](O)CC(N)=O)NC(=O)[C@H]([C@H](O)[C@@H](O)c5ccc(O)cc5)NC(=O)[C@@H]5C[C@@H](O)CN5C(=O)[C@H]([C@@H](C)O)NC4=O)cc3)no2)cc1 (X1-[Orn(4R-OH,5R-OH)]T[Hyp][hTyr(3S-OH,4S-OH)][Gln(3R-OH)][Pro(3S-OH,4S-Me)]; lactam 1-C)"
assay_readout = "MIC"
readout_value = "1 µg/mL"


Next item in the queue.
Query string: What does the record list as MIC for CC[C@H](C)C[C@H](C)CCCCCCCCC(=O)N[C@H]1C[C@@H](O)[C@@H](NCCN)NC(=O)[C@@H]2[C@@H](O)CCN2C(=O)[C@H]([C@H](O)CCN)NC(=O)[C@H]([C@H](O)[C@@H](O)c2ccc(O)cc2)NC(=O)[C@@H]2C[C@@H](O)CN2C(=O)[C@H]([C@@H](C)O)NC1=O [CASPOFUNGIN] ?
Result string: 8 µg/mL
